Where these numbers come from: ChEMBL document CHEMBL3351749

- Tested on: Candida albicans
- Procedure Summary: Antimicrobial activity against Candida albicans CGMCC2.2086 after 48 hrs by modified microdilution method
- Type: functional
- Stated Conditions: CGMCC2.2086, 48 h
Assay Metric: MIC (µg/mL)

• CC(=O)N1CCN(c2ccc(OCC3COC(Cn4ccnc4)(c4ccc(Cl)cc4Cl)O3)cc2)CC1 (stereo unspecified) = 3.9
• COC(=O)[C@]12CC[C@@H](C)[C@H](C)[C@H]1C1=CC[C@@H]3[C@@]4(C)Cc5c([nH]c6ccc(F)cc56)C(C)(C)[C@@H]4CC[C@@]3(C)[C@]1(C)CC2 = 62.5
• COc1ccc2[nH]c3c(c2c1)C[C@]1(C)[C@H]2CC=C4[C@@H]5[C@@H](C)[C@H](C)CC[C@]5(C(=O)NCCCN(C)C)CC[C@@]4(C)[C@]2(C)CC[C@H]1C3(C)C = 62.5

* * *

- Test system: Bacillus subtilis
- Procedure Summary: Antimicrobial activity against Bacillus subtilis CGMCC1.1162 after 24 hrs by modified microdilution method
- Format: functional
- Stated Conditions: CGMCC1.1162, 24 h
The following compounds are listed with their measured MIC values.
Assay Metric: MIC (µg/mL)

- CCOc1ccc2[nH]c3c(c2c1)C[C@]1(C)[C@H]2CC=C4[C@@H]5[C@@H](C)[C@H](C)CC[C@]5(C(=O)O)CC[C@@]4(C)[C@]2(C)CC[C@H]1C3(C)C: 62.5
- C[C@H]1[C@H](C)CC[C@]2(C(=O)NCCCN(C)C)CC[C@]3(C)C(=CC[C@@H]4[C@@]5(C)Cc6c([nH]c7ccc(Cl)cc67)C(C)(C)[C@@H]5CC[C@]43C)[C@H]12: 15.6
- NCC[C@H](O)C(=O)N[C@@H]1C[C@H](N)[C@@H](O[C@H]2O[C@H](CN)[C@@H](O)[C@H](O)[C@H]2O)[C@H](O)[C@H]1O[C@H]1O[C@H](CO)[C@@H](O)[C@H](N)[C@H]1O: 0.9
- CCOc1ccc2[nH]c3c(c2c1)C[C@]1(C)[C@H]2CC=C4[C@@H]5[C@@H](C)[C@H](C)CC[C@]5(C(=O)OC)CC[C@@]4(C)[C@]2(C)CC[C@H]1C3(C)C: 31.2
- COC(=O)[C@]12CC[C@@H](C)[C@H](C)[C@H]1C1=CC[C@@H]3[C@@]4(C)Cc5c([nH]c6ccc(Br)cc56)C(C)(C)[C@@H]4CC[C@@]3(C)[C@]1(C)CC2: 62.5

* * *

- Tested on: Staphylococcus aureus
- Procedure Summary: Antimicrobial activity against Staphylococcus aureus CGMCC1.1361 after 24 hrs by modified microdilution method
- Format: functional
- Stated Conditions: CGMCC1.1361, 24 h
The following compounds are listed with their measured MIC values.
Assay Metric: MIC (µg/mL)

- COc1ccc2[nH]c3c(c2c1)C[C@]1(C)[C@H]2CC=C4[C@@H]5[C@@H](C)[C@H](C)CC[C@]5(C(=O)O)CC[C@@]4(C)[C@]2(C)CC[C@H]1C3(C)C: 31.2
- CCOc1ccc2[nH]c3c(c2c1)C[C@]1(C)[C@H]2CC=C4[C@@H]5[C@@H](C)[C@H](C)CC[C@]5(C(=O)O)CC[C@@]4(C)[C@]2(C)CC[C@H]1C3(C)C: 62.5
- NCC[C@H](O)C(=O)N[C@@H]1C[C@H](N)[C@@H](O[C@H]2O[C@H](CN)[C@@H](O)[C@H](O)[C@H]2O)[C@H](O)[C@H]1O[C@H]1O[C@H](CO)[C@@H](O)[C@H](N)[C@H]1O: 0.9
- C[C@H]1[C@H](C)CC[C@]2(C(=O)O)CC[C@]3(C)C(=CC[C@@H]4[C@@]5(C)Cc6c([nH]c7ccc(F)cc67)C(C)(C)[C@@H]5CC[C@]43C)[C@H]12: 15.6
- Cc1ccc2[nH]c3c(c2c1)C[C@]1(C)[C@H]2CC=C4[C@@H]5[C@@H](C)[C@H](C)CC[C@]5(C(=O)NCCCN(C)C)CC[C@@]4(C)[C@]2(C)CC[C@H]1C3(C)C: 31.2
- COc1cccc2c3c([nH]c12)C(C)(C)[C@@H]1CC[C@]2(C)[C@H](CC=C4[C@@H]5[C@@H](C)[C@H](C)CC[C@]5(C(=O)O)CC[C@]42C)[C@@]1(C)C3: 62.5
- C[C@H]1[C@H](C)CC[C@]2(C(=O)NCCCN(C)C)CC[C@]3(C)C(=CC[C@@H]4[C@@]5(C)Cc6c([nH]c7ccccc67)C(C)(C)[C@@H]5CC[C@]43C)[C@H]12: 15.6
- C[C@H]1[C@H](C)CC[C@]2(C(=O)O)CC[C@]3(C)C(=CC[C@@H]4[C@@]5(C)CCC(=O)C(C)(C)[C@@H]5CC[C@]43C)[C@H]12: 62.5
- COC(=O)[C@]12CC[C@@H](C)[C@H](C)[C@H]1C1=CC[C@@H]3[C@@]4(C)Cc5c([nH]c6ccc(Br)cc56)C(C)(C)[C@@H]4CC[C@@]3(C)[C@]1(C)CC2: 31.2
- COC(=O)[C@]12CC[C@@H](C)[C@H](C)[C@H]1C1=CC[C@@H]3[C@@]4(C)Cc5c([nH]c6ccc(F)cc56)C(C)(C)[C@@H]4CC[C@@]3(C)[C@]1(C)CC2: 15.6
- COc1ccc2[nH]c3c(c2c1)C[C@]1(C)[C@H]2CC=C4[C@@H]5[C@@H](C)[C@H](C)CC[C@]5(C(=O)NCCCN(C)C)CC[C@@]4(C)[C@]2(C)CC[C@H]1C3(C)C: 31.2
